- measuredOn: UniProt P08253
- Sequence (P08253 110-660): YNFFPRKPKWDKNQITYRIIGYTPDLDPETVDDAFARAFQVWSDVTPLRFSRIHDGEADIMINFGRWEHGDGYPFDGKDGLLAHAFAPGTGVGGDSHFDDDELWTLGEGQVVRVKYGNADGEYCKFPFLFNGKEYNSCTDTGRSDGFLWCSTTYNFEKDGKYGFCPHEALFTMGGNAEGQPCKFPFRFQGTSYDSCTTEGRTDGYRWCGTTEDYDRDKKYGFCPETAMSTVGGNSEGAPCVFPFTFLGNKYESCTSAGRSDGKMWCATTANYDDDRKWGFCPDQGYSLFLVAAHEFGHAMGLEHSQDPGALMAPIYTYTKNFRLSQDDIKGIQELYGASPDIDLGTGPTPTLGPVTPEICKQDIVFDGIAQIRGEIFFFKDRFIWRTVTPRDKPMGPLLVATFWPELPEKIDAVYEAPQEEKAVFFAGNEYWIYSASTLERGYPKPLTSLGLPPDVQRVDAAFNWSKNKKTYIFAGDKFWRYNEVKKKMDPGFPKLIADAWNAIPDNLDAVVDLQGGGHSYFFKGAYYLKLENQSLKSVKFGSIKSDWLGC
- experimentSummary: inhibition of MMP-2 hydrolysis of thiopeptolide substrate
- Type: biochemical
- experimentalConditions: thiopeptolide substrate, pH 6.0, 22° C.; read-out: (IC50) MMP-2
pIC50: −log10 of the molar value.
Decide using pIC50: a value greater than or equal to 7 is Met, a smaller one is Not met.

O=C(C[C@H](NC(=O)c1ccccc1)C(=O)O)c1ccc2oc3ccccc3c2c1 : Not met

Continue with the molecule presented below.
Q: Check the entry COc1ccc(CC(=O)NC(CC(=O)c2ccc3oc4ccccc4c3c2)C(=O)O)cc1OC (centres unmarked) : does pIC50 equal or exceed 7?
Ans: Not met
